# Lookup of reported IC50 keyed by entry
System: IL-17-induced GROα secretion from HT-29 cells
procedure text: GROα release assay in human colorectal adenocarcinoma epithelial cell (HT-29, ELISA)
Assay type: cell-based
details: 10 ng/mL IL-17A, 48 hours, highest concentration 10 μM, read-out: Cellular assay HT29 cell/CXCL1 IC50
measured property: IC50 (nM)

In [3]: df
Out[3]:
                                   compound  quantitative_result
0  Cc1nonc1C(=O)N[C@H](C(=O)Nc1ccc2c(c1)CC(C1C[C@@H](C(C)C)NC1=O)C2)C(C1CC1)C1CC1 (some centres unmarked)                 3680
1  Cc1nonc1C(=O)N[C@H](C(=O)Nc1ccc2c(c1)CC(N1C[C@@H](C(C)C)NC1=O)(C(C)(O)C(F)(F)F)C2)C(C1CC1)C1CC1 (some centres unmarked)                  271

---

// reported log10(IC50) for each item listed
tested system: human IL-17A / human IL-17RA (Homo sapiens (Human), UniProt Q16552)
Sequence (Q16552 24-155): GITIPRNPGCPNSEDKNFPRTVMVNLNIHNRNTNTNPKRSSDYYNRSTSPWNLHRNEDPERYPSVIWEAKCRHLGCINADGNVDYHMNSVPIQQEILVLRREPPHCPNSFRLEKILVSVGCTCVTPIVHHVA
procedure text: Human IL-17A biochemical assay (HTRF, blocking of IL-17A binding to IL-17RA)
details: 0.4 nM IL-17A, 0.3 nM IL-17RA, max compound concentration 10 uM
measured property: log10(IC50) (log10 of the value in nM)

molecule	tested system	measured property	quantitative result
Cc1nonc1C(=O)N[C@H](C(=O)Nc1ccc2c(c1)CC(C(=O)Nc1cnccc1Cl)(N1C[C@@H](C(C)C)NC1=O)C2)C(C1CC1)C1CC1 (stereo partly drawn)	human IL-17A / human IL-17RA (Homo sapiens (Human), UniProt Q16552)	log10(IC50)	1.63
CC[C@@H]1CN(C2(C(=O)NC)Cc3ccc(NC(=O)[C@@H](NC(=O)c4ccnn4C)C(C4CC4)C4CC4)cc3C2)C(=O)N1 (stereo partly drawn)	human IL-17A / human IL-17RA (Homo sapiens (Human), UniProt Q16552)	log10(IC50)	2.23
CC(C)n1nccc1C(=O)N[C@H](C(=O)Nc1ccc2c(c1)OC(CN1C[C@@H](C(F)(F)F)NC1=O)C2)C(C1CC1)C1CC1 (stereo partly drawn)	human IL-17A / human IL-17RA (Homo sapiens (Human), UniProt Q16552)	log10(IC50)	1.70
CNC(=O)C1(N2CC3(CC3)CNC2=O)Cc2ccc(NC(=O)C(NC(=O)c3ccnn3C)C3CCC(C(C)(F)F)CC3)cc2C1 (stereo not drawn)	human IL-17A / human IL-17RA (Homo sapiens (Human), UniProt Q16552)	log10(IC50)	2.21
Cc1nonc1C(=O)N[C@H](C(=O)Nc1ccc2c(c1)CC(C(=O)Nc1c(F)cccc1Cl)(N1C[C@@H](C(C)C)NC1=O)C2)C(C1CC1)C1CC1 (stereo partly drawn)	human IL-17A / human IL-17RA (Homo sapiens (Human), UniProt Q16552)	log10(IC50)	1.79
CNC(=O)C1(N2C[C@@H](C(C)C)NC2=O)Cc2ccc(NC(=O)[C@@H](NC(=O)Oc3ccccc3)C3CCCCC3)cc2C1 (stereo partly drawn)	human IL-17A / human IL-17RA (Homo sapiens (Human), UniProt Q16552)	log10(IC50)	2.84

---

tested system: human IL-17A / human IL-17RA (Homo sapiens (Human), UniProt Q16552)
procedure text: Human IL-17A biochemical assay (HTRF, blocking of IL-17A binding to IL-17RA)
details: 0.4 nM IL-17A, 0.3 nM IL-17RA, max compound concentration 10 uM
measured property: IC50

molecule	result
CC[C@H]1CN(C2(C(=O)NC)Cc3ccc(NC(=O)[C@@H](NC(=O)c4ccnn4C)C4CCCCC4)cc3C2)C(=O)N1 (stereo partly drawn)	1000 nM
Cc1nonc1C(=O)N[C@H](C(=O)Nc1ccc2c(c1)CC(C(=O)NC1(c3cc(F)ccc3F)CC1)(N1CC3(CC3)CNC1=O)C2)C1CCC(F)(F)CC1 (stereo partly drawn)	77.8 nM
CNC(=O)C1(N2CCNC2=O)Cc2ccc(NC(=O)[C@@H](NC(=O)c3ccnn3C)C3CCCCC3)cc2C1 (stereo partly drawn)	1800 nM
CNC(=O)C1(N2CC(C(C)C)NC2=O)Cc2ccc(NC(=O)[C@@H](NC(=O)c3nonc3C)C3CCCCC3)cc2C1 (stereo partly drawn)	58 nM
Cc1nonc1C(=O)N[C@H](C(=O)Nc1ccc2c(c1)CC(c1cn3ncccc3n1)(N1C[C@@H](C(C)C)NC1=O)C2)C(C1CC1)C1CC1 (stereo partly drawn)	257 nM
CNC(=O)C1(N2CC(Cc3ccc(C(F)(F)F)cc3)NC2=O)Cc2ccc(NC(=O)[C@@H](NC(=O)c3ccnn3C)C3CCCCC3)cc2C1 (stereo partly drawn)	157 nM

---

tested system: human IL-17A / human IL-17RA (Homo sapiens (Human), UniProt Q16552)
procedure text: Human IL-17A biochemical assay (HTRF, blocking of IL-17A binding to IL-17RA)
details: 0.4 nM IL-17A, 0.3 nM IL-17RA, max compound concentration 10 uM
measured property: IC50 (µM)

compound	measured property	quantitative result
Cn1nccc1C(=O)N[C@H](C(=O)Nc1ccc2c(c1)OC(CN1C[C@@H](C(F)(F)F)NC1=O)C2)C1CCC(F)(F)CC1 (stereo partly shown) [Example 258]	IC50	0.108
CCC1CNC(=O)N(C2(C(=O)NC)Cc3ccc(NC(=O)[C@@H](NC(=O)c4ccnn4C)C4CCCCC4)cc3C2)C1 (stereo partly shown) [Example 75]	IC50	0.033
CNC(=O)C1(N2CC(C)(Cc3ccc(OC)cc3)CNC2=O)Cc2ccc(NC(=O)[C@@H](NC(=O)c3ccnn3C)C3CCCCC3)cc2C1 (stereo partly shown) [Example 100]	IC50	0.886
CC(C)CNC(=O)C1(N2C[C@@H](C(C)C)NC2=O)Cc2ccc(NC(=O)[C@@H](NC(=O)c3ccnn3C)C3CCCCC3)cc2C1 (stereo partly shown) [Example 124]	IC50	0.019
Cn1nccc1C(=O)N[C@H](C(=O)Nc1ccc2c(c1)CC(CNc1ccccc1)(N1CC3(CC3)CNC1=O)C2)C1CCCCC1 (stereo partly shown) [Example 161]	IC50	0.121
Cn1nccc1C(=O)NC(C(=O)Nc1ccc2c(c1)CC(N1C[C@@H](C(F)(F)F)NC1=O)C2)C1CCc2cc(Cl)ccc2C1 (stereo partly shown) [Example 217]	IC50	0.0625
CNC(=O)C1(N2C[C@@H](C(C)C)NC2=O)Cc2ccc(NC(=O)C(NC(=O)c3ccnn3C)C3CCc4c(Cl)cccc4C3)cc2C1 (stereo partly shown) [Example 201]	IC50	0.0065
[2H]C([2H])([2H])NC(=O)C1(N2C[C@@H](C(C)C)NC2=O)Cc2ccc(NC(=O)[C@@H](NC(=O)c3ccnn3C)C3CCCCCC3)cc2C1 (stereo partly shown) [Example 82]	IC50	0.032
CNC(=O)C1(N2CC(C3CCOC3)NC2=O)Cc2ccc(NC(=O)[C@@H](NC(=O)c3ccnn3C)C3CCCCC3)cc2C1 (stereo partly shown) [Example 34]	IC50	8.4
CNC(=O)C1(N2C[C@@H](C(C)C)NC2=O)Cc2ccc(NC(=O)[C@@H](NC(=O)c3nonc3C)C3CCC(F)(F)CC3)cc2C1 (stereo partly shown) [Example 116]	IC50	0.0691
CC1CN(C2Cc3ccc(NC(=O)[C@@H](NC(=O)c4ccnn4C)C4CCCCC4)cc3C2)C(=O)N1 (stereo partly shown) [Example 3]	IC50	3.19
CCC1CCC(C(NC(=O)c2ccnn2C)C(=O)Nc2ccc3c(c2)CC(C(=O)NC)(N2CC4(CC4)CNC2=O)C3)CC1 (stereo not shown) [Example 139]	IC50	0.01
Cn1nccc1C(=O)N[C@H](C(=O)Nc1ccc2c(c1)CC(N1CC3(CC3)CNC1=O)C2)C1CCCCC1 (stereo partly shown) [Example 199]	IC50	0.57
CC[C@H]1CC[C@H]([C@H](NC(=O)c2ccnn2C)C(=O)Nc2ccc3c(c2)CC(COC)(N2CC4(CC4)CNC2=O)C3)CC1 (stereo partly shown) [Example 165]	IC50	0.173
CNC(=O)C1(N2C[C@@H](C(C)C)NC2=O)Cc2ccc(NC(=O)[C@@H](NC(=O)CCc3ccccc3)C3CCCCC3)cc2C1 (stereo partly shown) [Example 52]	IC50	1.31
CC(C)[C@@H]1CN(C2Cc3ccc(NC(=O)[C@@H](NC(=O)c4ccnn4C)C4CCCCC4)cc3C2)C(=O)N1 (stereo partly shown) [Example 162]	IC50	0.54
CNC(=O)C1(N2CC(C(C)C(F)(F)F)NC2=O)Cc2ccc(NC(=O)[C@@H](NC(=O)c3ccnn3C)C3CCCCC3)cc2C1 (stereo partly shown) [Example 81]	IC50	0.075
CNC(=O)C1(N2C(=O)NCC2C)Cc2ccc(NC(=O)[C@@H](NC(=O)c3ccnn3C)C3CCCCC3)cc2C1 (stereo partly shown) [Example 17]	IC50	2.5
CNC(=O)C1(N2C[C@@H](C(C)C)NC2=O)Cc2ccc(NC(=O)C(NC(=O)c3ccnn3C)C3CCC(C)(C)CC3)cc2C1 (stereo partly shown) [Example 87]	IC50	0.036
CNC(=O)C1(N2C[C@@H](C(C)C)NC2=O)Cc2ccc(NC(=O)[C@@H](NC(=O)c3cccc(Cl)c3)C3CCCCC3)cc2C1 (stereo partly shown) [Example 69]	IC50	0.12
Cc1nonc1C(=O)N[C@H](C(=O)Nc1ccc2c(c1)CC(C(=O)Nc1ccccc1Cl)(N1C[C@@H](C(C)C)NC1=O)C2)C(C1CC1)C1CC1 (stereo partly shown) [Example 263]	IC50	0.0971
Cc1nonc1C(=O)N[C@H](C(=O)Nc1ccc2c(c1)CC(C(=O)NC(C1CC1)C1CC1)(N1C[C@@H](C(C)C)NC1=O)C2)C(C1CC1)C1CC1 (stereo partly shown) [Example 281]	IC50	0.0165
CNC(=O)C1(N2CC(C)NC2=O)CCc2ccc(NC(=O)[C@@H](NC(=O)c3ccnn3C)C3CCCCC3)cc2C1 (stereo partly shown) [Example 10]	IC50	19
CC(C)[C@@H]1CN(CC2Cc3ccc(NC(=O)[C@@H](NC(=O)c4ccnn4C(C)C)C(C4CC4)C4CC4)cc3N2)C(=O)N1 (stereo partly shown) [Example 286]	IC50	0.144
CNC(=O)C1(N2CC3(CCCC3)CNC2=O)Cc2ccc(NC(=O)[C@@H](NC(=O)c3ccnn3C)C3CCCCC3)cc2C1 (stereo partly shown) [Example 147]	IC50	0.0224
